experiment-notes: Acute toxicity / mortality, oral, mice
Type: in vivo
condition-summary: mouse, in vivo; 300 mg/kg/PO; read-out: Percentage of mortality with mice
parameter: mortality

### Prompt Endpoint output: mortality of CN1CCN(CC2COC3(O2)c2ccccc2C=Cc2ccccc23)CC1 (stereo not shown) . Value?
### Response ~50%

====

experiment-notes: Acute toxicity / mortality, oral, mice
Assay type: in vivo
condition-summary: mouse, in vivo; 2000 mg/kg/PO; read-out: Percentage of mortality with mice
Field: mortality. Provide a value for each of the compounds that follow.
Numbers only, in %.

c1ccc(C(c2ccccc2)N2CCN(CC3COC4(O3)c3ccccc3CCc3ccccc34)CC2)cc1 (stereo not drawn) ... 0

--- query ---
### Prompt Endpoint output: mortality of CN(C)C(=O)CN1CCN(CC2COC3(O2)c2ccccc2C=Cc2ccccc23)CC1 (stereo not drawn) . Value?
### Response 0

====

experiment-notes: Acute toxicity / mortality, oral, mice
Format: in vivo
condition-summary: mouse, in vivo; oral; Table XIII; read-out: LD50
parameter: LD50 (mg/kg)
Give bare numbers, in mg/kg.

Quick batch: LD50 for everything below.
1. CNCC1COC2(O1)c1ccccc1C=Cc1ccccc12 (stereo not drawn) [R = CH3 (--Z-- = --CH = CH--), reference compound]
2. CCC(C)NCC1COC2(O1)c1ccccc1CCc1ccccc12 (stereo not drawn) [R = C4 H9 (s) (--Z-- = --CH2 --CH2 --), reference compound]
3. CCNCC1COC2(O1)c1ccccc1C=Cc1ccccc12 (stereo not drawn) [R = C2 H5 (--Z-- = --CH = CH--), reference compound]

### Response
1: 750; 2: 900; 3: 375

Quick batch: LD50 for everything below.
1. CC(C)NCC1COC2(O1)c1ccccc1C=Cc1ccccc12 (stereo not drawn) [R = C3 H7 (i) (--Z-- = --CH = CH--), reference compound]
2. CNCC1COC2(O1)c1ccccc1CCc1ccccc12 (stereo not drawn) [R = CH3 (--Z-- = --CH2 --CH2 --), reference compound]
3. CCNCC1COC2(O1)c1ccccc1CCc1ccccc12 (stereo not drawn) [R = C2 H5 (--Z-- = --CH2 --CH2 --), reference compound]

### Response
1. 550
2. 850
3. 550
